system tested: T1, recombinant human GM-CSF (Peprotech) (human, UniProt P04141 18-144)
T1 construct: Commercial recombinant protein; also called granulocyte-macrophage colony stimulating factor
T1 sequence (P04141 18-144 limits assumed): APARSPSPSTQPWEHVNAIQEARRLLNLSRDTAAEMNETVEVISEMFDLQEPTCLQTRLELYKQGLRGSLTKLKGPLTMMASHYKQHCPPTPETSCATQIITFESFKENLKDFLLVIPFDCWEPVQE
test name: SPR (BIAcore); recombinant human GM-CSF coupled to CM5 chip, antibody injected at 66.7-4.17 nM
Entries and their Kd values follow.
Field: numeric (pM). Do not append units.

Consider the following illustrative entries.
binder="hGM4/1 (antibody, V domains shown, Heavy h4/10 with human gamma 1 constant (hG1), light h4a with human kappa constant (hKa); also called h4K21-1; 4K21-1) VH: QVQLQESGGGLVKPGGSLKLSCAASGFAFSAYDMSWVRQTPDKRLEWVAYISSGGSSFYYPDTVKGRFTISRDNAKNTLYLQMSSLKSEDTAMYYCARHLGFDYWGQGTMVTVSS VL: DVVMTQSPLSLPVTLGQPASISCRSSQSLVNSNGNTYLHWFQQRPGQSPRRLIYKVSNRFSGVPDRFSGSGSGTDFTLKISRVEAEDVGVYYCSQSTHVPPTFGGGTKVEIK" readout=Kd units_label=pM reported_measurement=130
binder="hGM4/5 (antibody, V domains shown, Heavy h4/50 with human gamma 1 constant (hG1), light h4a with human kappa constant (hKa); also called h4K21-5) VH: EVQLVESGGGLVKSGGSLTLSCAASGFAFSAYDMSWIRQAPGKGLEWVSYISSGGSSFYYPDTVKGRFTISRDNAKNSLYLQMNSLKDEDTAVYYCARHLGFDYWGQGTLVTVSS VL: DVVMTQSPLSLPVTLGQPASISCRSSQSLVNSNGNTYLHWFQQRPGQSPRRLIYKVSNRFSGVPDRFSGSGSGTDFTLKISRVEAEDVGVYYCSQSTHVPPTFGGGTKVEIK" readout=Kd units_label=pM reported_measurement=130
binder="hGM4/3 (antibody, V domains shown, Heavy h4/30 with human gamma 1 constant (hG1), light h4a with human kappa constant (hKa); also called h4K21-3; 4K21-3) VH: EVQLVESGGGLVQPGGSLRLSCSASGFAFSAYDMSWVRQAPGKGLEWVAYISSGGSSFYYPDTVKGRFTISRDNAKNSLFLQMSSLRAEDTAVYYCARHLGFDYWGQGTTVTVSS VL: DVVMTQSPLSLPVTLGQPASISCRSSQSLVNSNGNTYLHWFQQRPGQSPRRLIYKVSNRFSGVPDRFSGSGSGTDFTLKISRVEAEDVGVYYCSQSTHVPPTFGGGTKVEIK" readout=Kd units_label=pM reported_measurement=140
binder="hGM4/6 (antibody, V domains shown, Heavy h4/10 with human gamma 1 constant (hG1), light h4b with human kappa constant (hKa); also called h4K21-6) VH: QVQLQESGGGLVKPGGSLKLSCAASGFAFSAYDMSWVRQTPDKRLEWVAYISSGGSSFYYPDTVKGRFTISRDNAKNTLYLQMSSLKSEDTAMYYCARHLGFDYWGQGTMVTVSS VL: DVVMTQSPLSLPVTLGQPASISCRSSQSLVNSNGNTYLHWFQQRPGQSPRRLIYKVSNRFSGVPDRFSGSGSGTDFTLKISRVEAEDVGVYYCSQSTHVPPTFGQGTKLEIK" readout=Kd units_label=pM reported_measurement=81

As a next step, examine the binder that follows.
Exercise: Looking for the measured Kd of hGM4/2 (antibody, V domains shown, Heavy h4/20 with human gamma 1 constant (hG1), light h4a with human kappa constant (hKa); also called h4K21-2) VH: EVQLVESGGGLVQPGGSLRLSCAASGFAFSAYDMSWVRQAPGKGLEWVSYISSGGSSFYYPDTVKGRFTISRDNAKNSLYLQMNSLRAEDTAVYYCARHLGFDYWGQGTLVTVSS VL: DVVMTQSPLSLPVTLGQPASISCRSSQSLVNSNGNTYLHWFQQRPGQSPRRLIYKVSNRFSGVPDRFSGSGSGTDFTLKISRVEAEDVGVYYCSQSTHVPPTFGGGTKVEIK , can you help?
Key: 290
